Value source: ChEMBL document CHEMBL3727364

Target: Pyruvate dehydrogenase kinase (Homo sapiens, UniProt Q15119+Q15120+Q16654+Q15118)
Assay: Inhibition of pyruvate dehydrogenase kinase in human PC3 cells incubated for 90 mins by phospho(Ser293)E1alpha MSP ELISA method
Assay type: cell-based
Conditions: pc-3
Recorded IC50, one value per entry.
Express the result in µM but write the number alone.

Answered cases to consult:
1. Cc1cnc(Cl)nc1-c1ccc(N(Cc2cccc(Cl)c2)C(=O)c2ccc(O)cc2O)cc1
0.1
2. Cc1cc(C(=O)N(Cc2ccccc2)c2ccc(C(=O)N(C)C)cc2)c(O)cc1O
1
3. CN(Cc1ccc2nccnc2c1)C(=O)c1ccc(N(Cc2ccsc2)C(=O)c2ccc(O)cc2O)cc1
1

Report IC50 for COc1ccc(CN(C)C(=O)c2ccc(N(Cc3cc(C)no3)C(=O)c3cc(Cl)c(O)cc3O)cc2)cc1 please.
1

Report IC50 for Cc1cc(S(=O)(=O)NCc2ccccn2)cnc1-c1ccc(N(Cc2ccsc2)C(=O)c2cc(Cl)c(O)cc2O)cc1 please.
1

----------
Recorded pIC50, one value per entry.
Target: [Pyruvate dehydrogenase (acetyl-transferring)] kinase isozyme 1, mitochondrial (Homo sapiens, UniProt Q15118)
Scale explanation: pIC50 corresponds to minus log10 of a concentration expressed in moles per litre.

Answered cases to consult:
1. COc1ccc(CNC(=O)c2ccc(N(Cc3cccnc3)C(=O)c3ccc(O)cc3O)cc2)cc1
7.00
2. Cc1cc2ccccc2nc1-c1ccc(N(Cc2ccc(F)c(F)c2)C(=O)c2ccc(O)cc2O)cc1
7.00
3. Cc1cc(S(=O)(=O)N2CC(F)(F)C2)cnc1-c1ccc(N(Cc2ccsc2)C(=O)c2ccc(O)cc2O)cc1
7.00
4. CSc1nc2c(c(-c3ccc(N(Cc4cccnc4)C(=O)c4ccc(O)cc4O)cc3)n1)CCC2
7.00
5. Cc1cnc(-c2cccc(F)c2)nc1-c1ccc(N(Cc2ccccc2)C(=O)c2ccc(O)cc2O)cc1
6.00

Report pIC50 for Cc1cnc(Cl)nc1-c1ccc(N(Cc2cccc(Cn3ccnc3)c2)C(=O)c2cc(Cl)c(O)cc2O)cc1 please.
8.00

Report pIC50 for CN(Cc1ccc2ccccc2n1)C(=O)c1ccc(N(Cc2ccccc2)C(=O)c2ccc(O)cc2O)cc1 please.
7.00

Report pIC50 for Cc1c(-c2ccc(N(Cc3ccccc3)C(=O)c3ccc(O)cc3O)cc2)ccc2c1NC(=O)C2=O please.
6.00

----------
Biological target: [Pyruvate dehydrogenase (acetyl-transferring)] kinase isozyme 1, mitochondrial (Homo sapiens)
measurementName: IC50 (nM)
Express the result in nM but write the number alone.

1. O=C(c1ccc(O)cc1O)N(Cc1cccnc1)c1ccc(-c2nccc3occc23)cc1
1000
2. CN(C)C(=O)c1ccc(N(Cc2ccn(C)n2)C(=O)c2ccc(O)cc2O)cc1
100
3. Cc1cccnc1-c1ccc(N(Cc2ccccc2)C(=O)c2cc(Cl)c(O)cc2O)cc1
1000
4. CN(Cc1cccs1)C(=O)c1ccc(N(Cc2ccccc2)C(=O)c2ccc(O)cc2O)cc1
100
5. O=C(c1ccc(O)cc1O)N(Cc1cccnc1)c1ccc(-c2ccc(Cl)nc2)cc1
1000

Report IC50 for N#Cc1cncnc1-c1ccc(N(Cc2ccccc2)C(=O)c2ccc(O)cc2O)cc1 please.
1000

Report IC50 for Cc1cnc(Cl)nc1-c1ccc(N(Cc2ccsc2)C(=O)c2ccc(O)cc2O)cc1 please.
100

Report IC50 for CCNCc1ccc(CN(C(=O)c2ccc(O)cc2O)c2ccc(-c3nc4ccccc4cc3C)cc2)cc1 please.
100

Report IC50 for Cc1ccc(CN(C(=O)c2ccc(O)cc2O)c2ccc(-c3nc(C)ncc3C)cc2)cc1 please.
10

----------
Recorded pIC50, one value per entry.
Biological target: [Pyruvate dehydrogenase (acetyl-transferring)] kinase isozyme 1, mitochondrial (Homo sapiens, UniProt Q15118)
Scale explanation: pIC50 corresponds to minus log10 of a concentration expressed in moles per litre.

1) CN(Cc1ccnc2ccccc12)C(=O)c1ccc(N(Cc2ccccc2)C(=O)c2ccc(O)cc2O)cc1
7.00
2) Cc1c(Cl)ncc2cc(-c3ccc(N(Cc4cccnc4)C(=O)c4ccc(O)cc4O)cc3)ccc12
6.00
3) Cc1cc(S(=O)(=O)N2CCC(F)(F)CC2)cnc1-c1ccc(N(Cc2cccnc2)C(=O)c2ccc(O)cc2O)cc1
8.00
4) Cc1nccnc1-c1ccc(N(Cc2ccsc2)C(=O)c2ccc(O)cc2O)cc1
7.00
5) Cc1cc(S(=O)(=O)NCc2ccccc2)cnc1-c1ccc(N(Cc2cccnc2)C(=O)c2ccc(O)cc2O)cc1
8.00
6) O=C(c1ccc(O)cc1O)N(Cc1ccccc1)c1ccc(-c2ccc(N3CCCC3)nn2)cc1
6.00

Report pIC50 for CN(C)C(=O)c1ccc(N(Cc2ccccc2)C(=O)c2ccc(O)cc2O)cc1 please.
7.00

Report pIC50 for CN(Cc1ccc2ncccc2c1)C(=O)c1ccc(N(Cc2ccccc2)C(=O)c2ccc(O)cc2O)cc1 please.
7.00

Report pIC50 for CN(Cc1ccc(C#N)cc1)C(=O)c1ccc(N(Cc2cccnc2)C(=O)c2ccc(O)cc2O)cc1 please.
7.00

Report pIC50 for CN(Cc1cccc2cccnc12)C(=O)c1ccc(N(Cc2ccsc2)C(=O)c2ccc(O)cc2O)cc1 please.
7.00

Report pIC50 for CN(Cc1cccc2cnccc12)C(=O)c1ccc(N(Cc2cccnc2)C(=O)c2ccc(O)cc2O)cc1 please.
7.00

Report pIC50 for Cc1cc(S(=O)(=O)NCCN(C)C)cnc1-c1ccc(N(Cc2cccnc2)C(=O)c2ccc(O)cc2O)cc1 please.
7.00

Report pIC50 for Cc1cccnc1-c1ccc(N(Cc2cccnc2)C(=O)c2ccc(O)cc2O)cc1 please.
7.00

Report pIC50 for CC(=O)N1CCN(S(=O)(=O)c2cnc(-c3ccc(N(Cc4cccnc4)C(=O)c4ccc(O)cc4O)cc3)c(C)c2)CC1 please.
8.00

----------
Target: [Pyruvate dehydrogenase (acetyl-transferring)] kinase isozyme 1, mitochondrial (Homo sapiens, UniProt Q15118)
measurementName: pIC50
Scale explanation: pIC50 corresponds to minus log10 of a concentration expressed in moles per litre.

Answered cases to consult:
1. NC(=O)c1nc(-c2ccc(N(Cc3ccccc3)C(=O)c3ccc(O)cc3O)cc2)c2ccccc2n1
5.00
2. Cc1cc2ccc(F)cc2nc1-c1ccc(N(Cc2ccccc2)C(=O)c2ccc(O)cc2O)cc1F
7.00

Report pIC50 for Cc1cc(S(=O)(=O)NCCCC(N)=O)cnc1-c1ccc(N(Cc2cccnc2)C(=O)c2ccc(O)cc2O)cc1 please.
8.00

Report pIC50 for O=C(Nc1ccc(N(Cc2ccccc2)C(=O)c2ccc(O)cc2O)cc1)c1ccccc1 please.
6.00

Report pIC50 for CNS(=O)(=O)c1cnc(-c2ccc(N(Cc3cccnc3)C(=O)c3ccc(O)cc3O)cc2)c(C)c1 please.
8.00

Report pIC50 for CSc1ccc(CN(C(=O)c2ccc(O)cc2O)c2ccc(-c3nc4ccccc4cc3C)cc2)cc1 please.
7.00

Report pIC50 for Cc1nc(-c2ccc(N(Cc3ccccc3)C(=O)c3ccc(O)cc3O)cc2C)c2ccccc2n1 please.
7.00

Report pIC50 for Cc1c(-c2ccc(N(Cc3cccnc3)C(=O)c3ccc(O)cc3O)cc2)ccc2[nH]ncc12 please.
6.00

Report pIC50 for CNc1nnc(-c2ccc(N(Cc3cccnc3)C(=O)c3ccc(O)cc3O)cc2)c2ccccc12 please.
7.00

Report pIC50 for Cc1cc2ccccc2nc1-c1ccc(N(Cc2cccnc2)C(=O)c2ccc(O)cc2O)cc1 please.
8.00

Report pIC50 for COc1ccc(CN(C)C(=O)c2ccc(N(Cc3cccnc3)C(=O)c3ccc(O)cc3O)cc2)cc1 please.
8.00

Report pIC50 for Cc1cc2ccccc2nc1-c1ccc(N(Cc2ccc(CN3CCCC3)cc2)C(=O)c2ccc(O)cc2O)cc1 please.
7.00

Report pIC50 for Cc1cccnc1-c1ccc(N(Cc2ccccc2)C(=O)c2ccc(O)cc2O)cc1 please.
6.00

Report pIC50 for Cc1ccc(C)c(-c2ccc(N(Cc3ccccc3)C(=O)c3ccc(O)cc3O)cc2)n1 please.
8.00

Report pIC50 for O=C(c1ccc(O)cc1O)N(Cc1ccsc1)c1ccc(-c2nc(Cl)nc3[nH]ccc23)cc1 please.
6.00

Report pIC50 for C#Cc1ncc(C)c(-c2ccc(N(Cc3ccccc3)C(=O)c3ccc(O)cc3O)cc2)n1 please.
6.00

Report pIC50 for COc1ccc2nc(-c3ccc(N(Cc4ccccc4)C(=O)c4ccc(O)cc4O)cc3)c(C)cc2c1 please.
7.00

----------
Molecular target: [Pyruvate dehydrogenase (acetyl-transferring)] kinase isozyme 1, mitochondrial (Homo sapiens)
measurementName: pIC50
Scale explanation: pIC50 corresponds to minus log10 of a concentration expressed in moles per litre.

Answered cases to consult:
1) Cc1cc(S(=O)(=O)N2CCN(C)CC2)cnc1-c1ccc(N(Cc2ccsc2)C(=O)c2ccc(O)cc2O)cc1
8.00
2) Cc1nc(-c2ccc(N(Cc3cccnc3)C(=O)c3ccc(O)cc3O)cc2)c2ccccc2n1
7.00
3) O=C(c1ccc(O)cc1O)N(Cc1ccccc1)c1ccc(-c2nc3ccccc3nc2C(F)(F)F)cc1
6.00
4) Nc1ccc(-c2ccc(N(Cc3cccnc3)C(=O)c3ccc(O)cc3O)cc2)nn1
6.00
5) O=C(c1ccc(N(Cc2cccnc2)C(=O)c2ccc(O)cc2O)cc1)N1CCC(O)CC1
7.00
6) Cc1nccnc1-c1ccc(N(Cc2ccccc2)C(=O)c2ccc(O)cc2O)cc1
6.00
7) O=C(c1ccc(O)cc1O)N(Cc1ccccc1)c1ccc(-c2ccc(NC3CC3)nn2)cc1
7.00
8) Cc1cc(S(=O)(=O)N(C)CCO)cnc1-c1ccc(N(Cc2ccsc2)C(=O)c2ccc(O)cc2O)cc1
7.00
9) Cc1cnc(Cl)nc1-c1ccc(N(Cc2ccc(C#N)cc2)C(=O)c2ccc(O)cc2O)cc1
7.00
10) Nc1ccc(-c2ccc(N(Cc3ccccc3)C(=O)c3ccc(O)cc3O)cc2)nn1
7.00

Report pIC50 for Cc1csc2ncnc(-c3ccc(N(Cc4ccsc4)C(=O)c4ccc(O)cc4O)cc3)c12 please.
7.00

Report pIC50 for Cc1cc(S(=O)(=O)NCc2cccs2)cnc1-c1ccc(N(Cc2cccnc2)C(=O)c2ccc(O)cc2O)cc1 please.
8.00
